Taken from patent US11773093B1.

- target: DNA gyrase from E. coli (Escherichia coli, UniProt P0AES4+P0AES6)
- Sequence (P0AES4 whole entry, one chain of several): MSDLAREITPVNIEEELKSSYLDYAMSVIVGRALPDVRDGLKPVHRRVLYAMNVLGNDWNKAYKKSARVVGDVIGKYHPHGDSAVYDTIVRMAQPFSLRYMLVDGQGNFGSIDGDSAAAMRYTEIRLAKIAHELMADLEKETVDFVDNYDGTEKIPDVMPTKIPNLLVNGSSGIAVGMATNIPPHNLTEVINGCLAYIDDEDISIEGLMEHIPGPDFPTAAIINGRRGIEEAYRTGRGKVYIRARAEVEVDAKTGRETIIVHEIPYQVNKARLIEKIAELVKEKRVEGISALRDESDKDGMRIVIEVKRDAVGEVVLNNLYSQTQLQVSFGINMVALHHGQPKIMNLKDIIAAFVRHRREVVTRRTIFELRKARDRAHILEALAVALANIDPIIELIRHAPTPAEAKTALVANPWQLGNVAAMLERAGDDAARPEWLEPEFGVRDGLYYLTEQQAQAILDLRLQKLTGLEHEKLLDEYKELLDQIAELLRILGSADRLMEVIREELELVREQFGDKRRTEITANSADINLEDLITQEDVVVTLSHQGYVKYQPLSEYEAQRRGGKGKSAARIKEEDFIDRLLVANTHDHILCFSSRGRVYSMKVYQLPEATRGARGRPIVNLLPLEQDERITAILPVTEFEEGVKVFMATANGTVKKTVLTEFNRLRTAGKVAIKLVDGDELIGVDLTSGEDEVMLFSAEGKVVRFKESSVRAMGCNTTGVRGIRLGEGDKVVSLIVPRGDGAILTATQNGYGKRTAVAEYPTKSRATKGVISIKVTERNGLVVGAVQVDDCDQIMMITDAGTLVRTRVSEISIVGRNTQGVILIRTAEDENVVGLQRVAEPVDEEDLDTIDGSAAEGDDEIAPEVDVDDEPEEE
- method summary: Inhibitory activities on E. coli DNA Gyrase (Inspiralis assay)
pIC50: −log10 of the molar value.
metric: pIC50

compound	target	metric	readout number
CC(=O)Nc1ccc2c(c1)[nH]c1nccc(Nc3ccc(C(=O)O)cc3)c12 [Example 8]	DNA gyrase from E. coli (Escherichia coli, UniProt P0AES4+P0AES6)	pIC50	6.90
